All values here come from paper PMC7894885.

target: FL-Cyp33 (human, UniProt Q9UNP9 1-301); experiment: EMSA; EMSA: SELEX buffer (composition in S2 Table, not in material; physiological salt is 135 mM KCl, 15 mM NaCl) + 10% glycerol, 5 nM RNA, 0.5X TBE 8% PAGE at room temperature; NMR: SELEX buffer + 10% D2O, 25 C; pH not given; settings: protein: recombinant; 6xHis-thrombin construct for NMR; label: 5'-32P; hairpin (predicted)
Sequence (Q9UNP9 whole entry): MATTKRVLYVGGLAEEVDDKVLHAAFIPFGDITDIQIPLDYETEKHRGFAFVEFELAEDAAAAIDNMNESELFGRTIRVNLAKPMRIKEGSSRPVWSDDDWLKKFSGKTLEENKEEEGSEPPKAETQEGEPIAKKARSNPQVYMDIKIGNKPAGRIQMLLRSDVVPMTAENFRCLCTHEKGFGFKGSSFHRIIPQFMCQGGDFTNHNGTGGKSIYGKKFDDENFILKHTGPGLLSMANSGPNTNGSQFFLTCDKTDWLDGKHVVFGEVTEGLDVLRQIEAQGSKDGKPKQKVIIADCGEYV
pKd: −log10 of the molar value.
measurement label: pKd

| binder | measurement label | value measured |
| --- | --- | --- |
| SO-8 (structured_RNA) RNA: AGAACAAUAAUUACAAAGACUGAGCGUUUUAAAGUCUCCUCAUGUGCCCCC | pKd | 4.62 |
| CAGGUGUGUGACUACGAAAGAACAAUAAUAACACAAAAGAGUCCCGUGCC (structured_RNA) [SO-2] | pKd | 4.68 |
| UGGCCGGCCCAUCCCGACUGCCGGGUGAUAGACUCUUUAGCGAUUUAUGG (structured_RNA) [SO-4] | pKd | 4.26 |
| UGGUAGACCAGUGAUAAUUAACCUGAUG (structured_RNA) [SO-3] | pKd | 4.49 |
| AGGUGCCUCAAAUCCGCAUAAGAAUAACAACAUGGAGUGAAGCGCUCCCC (structured_RNA) [SO-6] | pKd | 4.44 |
